- Protocol description: WHO-TDR: Cytotoxicity
- Assay type: toxicity, cell-based
- Experimental parameters: human, MRC5 cells
Endpoint label: IC50

| Cpd smiles | IC50 |
| --- | --- |
| O=C(Nc1nc(-c2ccc3c(c2)OCCO3)cs1)C1CCN(S(=O)(=O)c2ccc(Cl)cc2)CC1 | 2.74 µg/mL |
| COc1cccc(NC(=O)NCCNc2ccc(Nc3cc(C)ccn3)nn2)c1 | > 11.8 µg/mL |
| O=C(CCSc1ccccc1)N(Cc1ccccn1)c1nc2ccccc2s1 | > 12.2 µg/mL |

stdin: Kindly indicate its recorded IC50. Item: Cc1csc(NC(=O)CSc2nc(-c3ccccc3)c(N)s2)n1
stdout: > 10.9 µg/mL
